Test system: Mycobacterium tuberculosis
Assay Overview: Antitubercular activity against Mycobacterium tuberculosis H37Rv assessed as bacterial growth inhibition at 250 ug/ml
Type: functional
Experimental Readout: inhibition at 250 µg/mL (%)
Response body: numeric value in %, unit text excluded.

Use the examples below as a reference point.
Cc1nn(-c2ccccc2)c(-n2ccnc2)c1C1C(C#N)=C(N)Oc2[nH]c(=O)[nH]c(=O)c21 (configuration not stated); 95
CO[C@H]1/C=C/O[C@@]2(C)Oc3c(C)c(O)c4c(O)c(c(/C=N/N5CCN(C)CC5)c(O)c4c3C2=O)NC(=O)/C(C)=C\C=C\[C@H](C)[C@H](O)[C@@H](C)[C@@H](O)[C@@H](C)[C@H](OC(C)=O)[C@@H]1C [RIFAMPIN]; 98
CCOC(=O)C1=C(N)Oc2c(c(=O)n(C)c(=O)n2C)C1c1c(C)nn(-c2ccccc2)c1-n1ccnc1 (configuration not stated); 84

# get_value(readout='inhibition at 250 µg/mL', item= CCOC(=O)C1=C(N)Oc2[nH]c(=S)[nH]c(=O)c2C1c1c(C)nn(-c2ccccc2)c1-n1ccnc1 (configuration not stated) )
37

Same again, this time with Cc1nn(-c2ccccc2)c(-n2ccnc2)c1C1C(C#N)=C(N)Oc2c1c(=O)n(C)c(=O)n2C (configuration not stated)
37

What about this molecule? Cc1nn(-c2ccccc2)c(-n2ccnc2)c1C1C(C#N)=C(N)Oc2[nH]c(=S)[nH]c(=O)c21 (configuration not stated)
37

Next molecule: CCOC(=O)C1=C(N)Oc2[nH]c(=O)[nH]c(=O)c2C1c1c(C)nn(-c2ccccc2)c1-n1ccnc1 (configuration not stated)
37
